# SYSTEM UNDER TEST: human bradykinin receptor 1 (B1R) (Homo sapiens, UniProt P46663)
# Construct: expressed in transfected cells; host or cells: CHO K1 cells
# Sequence (P46663 whole entry): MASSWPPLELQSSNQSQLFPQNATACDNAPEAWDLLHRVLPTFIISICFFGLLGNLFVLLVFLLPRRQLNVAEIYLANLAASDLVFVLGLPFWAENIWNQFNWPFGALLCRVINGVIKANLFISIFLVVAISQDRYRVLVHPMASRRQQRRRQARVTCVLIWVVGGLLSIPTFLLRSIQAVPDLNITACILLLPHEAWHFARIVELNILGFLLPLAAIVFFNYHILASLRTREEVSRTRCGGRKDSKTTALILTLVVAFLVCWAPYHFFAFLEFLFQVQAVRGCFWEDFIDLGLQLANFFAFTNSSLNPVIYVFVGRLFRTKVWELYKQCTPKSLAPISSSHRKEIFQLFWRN
# ASSAY: Functional study on the bradykinin receptor 1 (B1R), human: FLIPR Ca2+ influx assay
# Format: cell-based
# COND: test substance 10 μM; CHO K1 cells transfected with human B1R; Lys-Des-Arg9-bradykinin at EC80; Ca2+ influx (Fluo-4, FLIPR); read-out: B1R antagonism, human [10 μM] % inhibition
Rule: Y for inhibition at 10 µM not less than 70%, N for anything less.

For this compound, is measured inhibition at 10 µM 70% or higher? Cc1cc(S(=O)(=O)N2CCCCC2CCC(=O)N2CCC(C(Cc3ccccc3)N3CCN(C)CC3)CC2)c(C)cc1Cl (stereo not shown) Y

For this compound, is measured inhibition at 10 µM 70% or higher? O=C(CC1C(=O)Nc2ccccc2N1S(=O)(=O)c1ccc(Cl)c(Cl)c1)NCC1CCC(C(CCc2ccccc2)N2CCCC2)CC1 (stereo not shown) Y

For this compound, is measured inhibition at 10 µM 70% or higher? O=C(CC1C(=O)NCCN1S(=O)(=O)c1ccc(Cl)cc1Cl)NC1CCC(C(c2ccccc2)N2CCCC2)CC1 (stereo not shown) Y

For this compound, is measured inhibition at 10 µM 70% or higher? O=C(CC1CCCN1S(=O)(=O)c1ccc(Cl)c(Cl)c1)N1CCC(C(Cc2ccccc2)N2CCOCC2)CC1 (stereo not shown) N

For this compound, is measured inhibition at 10 µM 70% or higher? CN1CCN(C(c2ccccc2)C2CCC(NC(=O)CC3C(=O)Nc4ccccc4N3S(=O)(=O)c3ccc(Cl)c(Cl)c3)CC2)CC1 (stereo not shown) Y

For this compound, is measured inhibition at 10 µM 70% or higher? COc1ccc(S(=O)(=O)N2CCc3ccccc3C2CC(=O)NCC2CCC(C(CCc3ccccc3)N(C)C)CC2)cc1 (stereo not shown) N

====

For each record, write down the corresponding inhibition at 10 µM.
# SYSTEM UNDER TEST: bradykinin receptor 1 (B1R) of the rat (Rattus norvegicus)
# Construct: expressed in transfected cells; host or cells: CHO K1 cells
# ASSAY: Functional study on the bradykinin receptor 1 (B1R), rat: FLIPR Ca2+ influx assay
# Type: cell-based
# COND: test substance 10 μM; CHO K1 cells transfected with rat B1R; Des-Arg9-bradykinin at EC80; Ca2+ influx (Fluo-4, FLIPR); read-out: B1R antagonism, rat [10 μM] % inhibition
Lab book: enter the figure in %, no units written.

// returns reported inhibition at 10 µM for input CN(C)C(c1ccc(Cl)cc1)C1CCC(CNC(=O)c2c(N(C)S(=O)(=O)c3ccc(Cl)c(Cl)c3)sc3c2CCCC3)CC1 (stereo not shown) [Example 48] 19

// returns reported inhibition at 10 µM for input CN1CCN(C(c2ccccc2)C2CCC(NC(=O)CC3C(=O)NCCN3S(=O)(=O)c3ccc(Cl)cc3Cl)CC2)CC1 (stereo not shown) [Example 61] 39

// returns reported inhibition at 10 µM for input CN(C)C(c1ccc(F)cc1)C1CCC(NC(=O)C2Cc3ccccc3N2S(=O)(=O)c2ccc(Cl)c(Cl)c2)CC1 (stereo not shown) [Example 94] -19

// returns reported inhibition at 10 µM for input O=C(CC1CCCN1S(=O)(=O)c1ccc(Cl)c(Cl)c1)N1CCC(C(Cc2ccccc2)N2CCOCC2)CC1 (stereo not shown) [Example 81] 56

// returns reported inhibition at 10 µM for input O=C1NCCN(S(=O)(=O)c2ccc(Cl)cc2Cl)C1CC(=O)N1CCC(C(c2ccccc2)N2CCOCC2)CC1 (stereo not shown) [Example 62] 27

// returns reported inhibition at 10 µM for input CN(C)C(c1ccccc1)C1CCC(NC(=O)c2c(N(C)S(=O)(=O)c3ccc(Cl)c(Cl)c3)sc3c2CCCC3)CC1 (stereo not shown) [Example 12] 0

// returns reported inhibition at 10 µM for input CN(C)C(CCc1ccccc1)C1CCC(CCNC(=O)Cc2ccccc2N(C)S(=O)(=O)c2ccc(Cl)c(Cl)c2)CC1 (stereo not shown) [Example 99] -7

====

# SYSTEM UNDER TEST: bradykinin receptor 1 (B1R) of the rat (Rattus norvegicus)
# Construct: expressed in transfected cells; host or cells: CHO K1 cells
# Sequence (P97583 1-337): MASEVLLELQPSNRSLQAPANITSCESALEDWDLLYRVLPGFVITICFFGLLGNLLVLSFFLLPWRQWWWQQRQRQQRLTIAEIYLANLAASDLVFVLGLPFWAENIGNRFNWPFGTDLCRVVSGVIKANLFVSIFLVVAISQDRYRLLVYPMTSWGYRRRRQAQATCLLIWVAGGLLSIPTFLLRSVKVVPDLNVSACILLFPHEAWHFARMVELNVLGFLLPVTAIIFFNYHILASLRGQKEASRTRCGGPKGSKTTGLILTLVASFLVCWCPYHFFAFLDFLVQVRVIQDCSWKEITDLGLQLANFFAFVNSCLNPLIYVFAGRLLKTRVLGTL
# ASSAY: Functional study on the bradykinin receptor 1 (B1R), rat: FLIPR Ca2+ influx assay
# Format: cell-based
# COND: test substance 10 μM; CHO K1 cells transfected with rat B1R; Des-Arg9-bradykinin at EC80; Ca2+ influx (Fluo-4, FLIPR); read-out: B1R antagonism, rat [10 μM] % inhibition
Rule: label 1 for inhibition at 10 µM not less than 40%, label 0 for anything less.

For this molecule, is measured inhibition at 10 µM 40% or higher? CN1CCN(C(Cc2ccccc2)C2CCN(C(=O)CC(NS(=O)(=O)c3ccc4ccccc4c3)c3ccccc3)CC2)CC1 (centres unmarked) [Example 116] label 1

For this molecule, is measured inhibition at 10 µM 40% or higher? O=C(CC1CCCCN1S(=O)(=O)c1ccc(Cl)c(Cl)c1)NC1CCC(C(CCc2ccccc2)N2CCCCC2)CC1 (centres unmarked) [Example 86] label 0

For this molecule, is measured inhibition at 10 µM 40% or higher? CN1CCN(C(c2ccccc2)C2CCC(NC(=O)CC3CCCCN3S(=O)(=O)c3ccc(Cl)c(Cl)c3)CC2)CC1 (centres unmarked) [Example 88] label 1

For this molecule, is measured inhibition at 10 µM 40% or higher? O=C(CC1CCCN1S(=O)(=O)c1ccc(Cl)c(Cl)c1)NC1CCC(C(c2ccccc2)N2CCOCC2)CC1 (centres unmarked) [Example 104] label 0

For this molecule, is measured inhibition at 10 µM 40% or higher? CN(C)C(c1ccccc1)C1CCC(CNC(=O)C2Cc3ccccc3N2S(=O)(=O)c2ccc(Cl)c(Cl)c2)CC1 (centres unmarked) [Example 95] label 0

For this molecule, is measured inhibition at 10 µM 40% or higher? O=C(CC1CCCN1S(=O)(=O)c1ccc(Cl)c(Cl)c1)NCC1CCC(C(c2ccccc2)N2CCOCC2)CC1 (centres unmarked) [Example 73] label 0

For this molecule, is measured inhibition at 10 µM 40% or higher? CN1CCN(C(c2ccccc2)C2CCC(NC(=O)CC3C(=O)Nc4ccccc4N3S(=O)(=O)c3ccc(Cl)c(Cl)c3)CC2)CC1 (centres unmarked) [Example 70] label 1

For this molecule, is measured inhibition at 10 µM 40% or higher? O=C(CC1C(=O)NCCN1S(=O)(=O)c1ccc(Cl)cc1Cl)NC1CCC(C(c2ccccc2)N2CCOCC2)CC1 (centres unmarked) [Example 101] label 0

For this molecule, is measured inhibition at 10 µM 40% or higher? CN(C)C(c1cccc(F)c1)C1CCC(CNC(=O)CC2c3ccccc3CCN2S(=O)(=O)c2ccc(Cl)c(Cl)c2)CC1 (centres unmarked) [Example 28] label 0

For this molecule, is measured inhibition at 10 µM 40% or higher? O=C1NCCN(S(=O)(=O)c2ccc(Cl)cc2Cl)C1CC(=O)N1CCCCC1C(Cc1ccccc1)N1CCOCC1 (centres unmarked) [Example 63] label 0

For this molecule, is measured inhibition at 10 µM 40% or higher? O=C(CC1C(=O)NCCN1S(=O)(=O)c1ccc(Cl)cc1Cl)NCC1CCC(C(c2ccccc2)N2CCCC2)CC1 (centres unmarked) [Example 58] label 0

For this molecule, is measured inhibition at 10 µM 40% or higher? O=C(CC1CCCN1S(=O)(=O)c1ccc(Cl)c(Cl)c1)NC1CCC(C(CCc2ccccc2)N2CCCCC2)CC1 (centres unmarked) [Example 77] label 0

For this molecule, is measured inhibition at 10 µM 40% or higher? CN(C)C(c1ccccc1)C1CCC(CCNC(=O)Cc2ccccc2N(C)S(=O)(=O)c2ccc(Cl)c(Cl)c2)CC1 (centres unmarked) [Example 98] label 0

For this molecule, is measured inhibition at 10 µM 40% or higher? CN(C)C(c1ccccc1)C1CCC(CNC(=O)CCCCN(C)S(=O)(=O)c2c(Cl)cc(Cl)cc2Cl)CC1 (centres unmarked) [Example 7] label 1
